assayed-target: human Survivin wild type (human, UniProt O15392 1-142)
Sequence (O15392 whole entry): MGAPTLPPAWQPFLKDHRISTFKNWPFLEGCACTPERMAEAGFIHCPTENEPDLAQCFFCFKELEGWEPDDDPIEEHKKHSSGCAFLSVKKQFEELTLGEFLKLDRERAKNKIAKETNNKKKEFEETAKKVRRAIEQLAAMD
protocol-summary: ITC
measurement-name: pKd
Friendly reminder that pKd comes from taking -log10 of the concentration in mol/L.

*Q* # input binder: ARTKQTARKSTG [histone H3 N-terminal peptide ARTKQTARKSTG, unmodified] ; wanted: its pKd
*A* 4.77
